- Test system: P12-Ichikawa
- EXPERIMENTAL PROTOCOL: cell viability relative to DMSO control; higher = less cytotoxic
- ASSAY SETUP: HPLM + 10% dialyzed FBS; 48 h; 0.00234 µM
Below, each of the compounds is paired with its reported cell viability value.
OUTCOME MEASURE: cell viability (%)

COMPOUND	UNITS OF MEASURE	MEAS VALUE
c1ccc(CNc2nc(N3CCOc4ccccc43)nc3c2CCCC3)cc1	%	102
C=CC(=O)Nc1cccc(Nc2nc(NC3CCC(N(C)C)CC3)nc3c2ncn3C(C)C)c1 (configuration not stated)	%	115
CO/C1=C/C(C)=C\[C@@H](C)[C@@H](O)[C@@H](C)C/C(C)=C\C=C/[C@H](OC)[C@@H]([C@@H](C)[C@@H](O)[C@H](C)[C@@]2(O)C[C@@H](O)[C@H](C)[C@@H](C(C)C)O2)OC1=O	%	99.5
COc1ccc2[nH]c([S+]([O-])Cc3ncc(C)c(OC)c3C)nc2c1 (configuration not stated)	%	85.9
CN[C@@H]1Cc2cccc3[nH]c(=O)n(c23)C1	%	123
CCC\C1=C\C(=O)NC(=S)N1	%	107
C[C@H]1[C@@H](C(=O)C[C@H]2O[C@@H]3O[C@]4(C)CC[C@H]5[C@H](C)CC[C@@H]([C@H]2C)[C@@]35OO4)O[C@@H]2O[C@]3(C)CC[C@H]4[C@H](C)CC[C@@H]1[C@@]24OO3	%	113

###

- System: SEM cells
- EXPERIMENTAL PROTOCOL: cell viability relative to DMSO control; higher = less cytotoxic
- ASSAY SETUP: HPLM + 10% dialyzed FBS; 48 h; 0.0632 µM
OUTCOME MEASURE: cell viability (%)

COMPOUND	OUTCOME MEASURE	UNITS OF MEASURE	MEAS VALUE
CCC\C1=C\C(=O)NC(=S)N1	cell viability	%	119
CCC(=O)N[C@H]1CC[C@H](C(=O)N(C)c2ccc(-c3nc4ccccc4o3)cc2)C1	cell viability	%	99.8
COc1cc(OC)c(OC)cc1C=O	cell viability	%	108
COc1ccc2[nH]c([S+]([O-])Cc3ncc(C)c(OC)c3C)nc2c1 (centres undefined)	cell viability	%	71.9
CCCCCCOC(=O)/N=C(/N)c1ccc(NCc2nc3cc(C(=O)N(CCC(=O)OCC)c4ccccn4)ccc3n2C)cc1	cell viability	%	123
CC[C@@]1(O)C(=O)OCC/2=C1/C=C3\N(CC4=CC5=CC(=CC=C5N=C34)O)C2=O	cell viability	%	58.8
COc1ccc([C@@H]2CC(=O)c3c(O)cc(O[C@@H]4O[C@H](CO[C@@H]5O[C@@H](C)[C@H](O)[C@@H](O)[C@H]5O)[C@@H](O)[C@H](O)[C@H]4O)cc3O2)cc1O	cell viability	%	113
Nc1ncnc2ccccc12	cell viability	%	97
C/C(O)=C(\C#N)C(=O)Nc1cc(Br)ccc1Br	cell viability	%	112

###

- Test system: NOMO1
- EXPERIMENTAL PROTOCOL: cell viability relative to DMSO control; higher = less cytotoxic
- ASSAY SETUP: RPMI 5 mM glucose + 10% dialyzed FBS; 48 h; 46.1 µM
Attribute: cell viability

COMPOUND	cell viability
C[C@]12CC[C@H]3[C@@H](CCC/4=C/C(=O)CC[C@]34C)[C@@H]1CC[C@@H]2O	143%
CCC\C1=C\C(=O)NC(=S)N1	31.7%
CN[C@@H](C)C(=O)N[C@H]1CN(C(=O)CC(C)C)CC[C@H]2CC[C@@H](C(=O)NC(c3ccccc3)c3ccccc3)N2C1=O	9.5%
CN(C)CCN(C)C(=O)c1ccc(NC(=O)Nc2ccc(-c3nc(N4CCOCC4)c4ccn(CC(F)(F)F)c4n3)cc2)cc1	69.5%
COc1cc2nc(-c3cc(F)ccc3O)nc(N[C@@H]3CNC[C@H]3C(C)(C)O)c2cc1OC	53.7%
Nc1nnc(-c2cccc(Cl)c2Cl)c(N)n1	99.1%
OC(=O)C(CC/1=C/C(=O)NC2=CC=CC=C12)NC(=O)C3=CC=C(Cl)C=C3 (centres undefined)	143%
COCCOc1nc(-c2ccc(Cl)c(Cl)c2)n(-c2ccc(NC(=O)CCl)cc2)n1	104%
c1ccc(CNc2nc(N3CCOc4ccccc43)nc3c2CCCC3)cc1	98.8%
ClC1=CC\2=C(OC3=C(C=CC=C3)\N=C2N4CCNCC4)C=C1	91.1%
COc1cccc([C@@H](C)NCCCc2ccccc2Cl)c1	104%
CC[C@H](NC(=O)[C@H](C)NC)C(=O)N1C[C@@H](O)C[C@H]1Cc1c(-c2[nH]c3cc(F)ccc3c2C[C@@H]2C[C@H](O)CN2C(=O)[C@H](CC)NC(=O)[C@H](C)NC)[nH]c2cc(F)ccc12	12.5%
COC1=CC=C(C=C1O)C/2=C/C(=O)C3=C(O2)C=C(O)C=C3O	98.2%
CC[C@@]1(O)C(=O)OC\C2=C1\C=C\3N(CC4=C3N=C5C=CC=CC5=C4)C2=O	14%
CNCc1ccc(-c2[nH]c3cc(F)cc4c3c2CCNC4=O)cc1	141%
CN(C)CC[C@H](c1ccc(Cl)cc1)c1ccccn1	82.8%
O=C1Nc2ccc(I)cc2/C1=C/c1cc(Br)c(O)c(Br)c1	76.6%
O=C(O)/C=C/c1ccc(O)c(O)c1	47.9%
COc1ccc(C2Sc3ccccc3N(CCN(C)C)C(=O)C2OC(C)=O)cc1 (centres undefined)	85.2%

###

- Tested on: NOMO1
- EXPERIMENTAL PROTOCOL: cell viability relative to DMSO control; higher = less cytotoxic
- ASSAY SETUP: RPMI 5 mM glucose + 10% FBS; 48 h; 15.4 µM
The label criterion met is reserved for cell viability strictly under 60%; criterion not met covers values equal to or above it.

MOLECULE	ANSWER LABEL
CC[C@@]1(O)C(=O)OCC/2=C1/C=C3\N(CC4=CC5=CC(=CC=C5N=C34)O)C2=O	criterion met
O=C(Cc1ccc(-c2ccc(OCCN3CCOCC3)cc2)cn1)NCc1ccccc1	criterion met
CC(/C=C/C(=O)NO)=C\[C@@H](C)C(=O)c1ccc(N(C)C)cc1	criterion met
Cn1cc(/C=C2\C(=O)Nc3cccnc32)c2ccccc21	criterion not met
C[C@]12CC[C@H]3[C@@H](C\C=C/4C[C@@H](O)CC[C@]34C)[C@@H]1CCC2=O	criterion not met
COc1cc2c(Nc3ccc(Br)cc3F)ncnc2cc1OCC1CCN(C)CC1	criterion not met
CC1(C)CNc2cc(NC(=O)c3cccnc3NCc3ccncc3)ccc21	criterion not met
CC(C)c1cc(C(=O)N2Cc3ccc(CN4CCN(C)CC4)cc3C2)c(O)cc1O	criterion met
COC1=C2C[C@@H](C)C[C@H](OC)[C@H](O)[C@@H](C)/C=C(\C)[C@H](OC(N)=O)[C@@H](OC)/C=C/C=C(\C)C(=O)NC(=CC1=O)C2=O	criterion not met
CN[C@@H]1Cc2cccc3[nH]c(=O)n(c23)C1	criterion not met
COc1cc([C@H]2Oc3cc([C@H]4Oc5cc(O)cc(O)c5C(=O)[C@@H]4O)ccc3O[C@@H]2CO)ccc1O	criterion not met
CC[C@H](C)C(=O)O[C@H]1C[C@H](O)\C=C2\C=C/[C@H](C)[C@H](CC[C@@H](O)C[C@@H](O)CC(O)=O)[C@@H]12	criterion not met
CC(C)c1ccc(Cn2ccc3c4c(N)nc(NC5CC5)nc4ccc32)cc1	criterion met
COc1ccc([C@@H]2CC(=O)c3c(O)cc(O[C@@H]4O[C@H](CO[C@@H]5O[C@@H](C)[C@H](O)[C@@H](O)[C@H]5O)[C@@H](O)[C@H](O)[C@H]4O)cc3O2)cc1O	criterion not met
O=C(O)/C=C/c1ccc(O)c(O)c1	criterion not met
CC1=C(CC(=O)O)c2cc(F)ccc2/C1=C\c1ccc([S+](C)[O-])cc1 (configuration not stated)	criterion not met

###

List of cell viability values.
- Tested on: SEM cells
- EXPERIMENTAL PROTOCOL: cell viability relative to DMSO control; higher = less cytotoxic
- ASSAY SETUP: RPMI 5 mM glucose + 10% dialyzed FBS; 48 h; 0.0632 µM
OUTCOME MEASURE: cell viability (%)

Nc1nc(N)c2nc(-c3cccc(O)c3)c(-c3cccc(O)c3)nc2n1 105
CC[C@@]1(O)C(=O)OCC/2=C1/C=C3\N(CC4=CC5=CC(=CC=C5N=C34)O)C2=O 43
CN1\C(=C(\O)C2=C(C=CC=C2)[S+]1([O-])=O)C(=O)NC3=CC=CC=N3 123
Cc1cc(Nc2cc(CN3CCOCC3)c3nc(C)c(Cc4ccc(Cl)cc4F)n3n2)[nH]n1 106
C[S+](=O)([O-])c1cccc(CNc2nc(Nc3ccc4c(c3)CCC(=O)N4)ncc2C(F)(F)F)c1 101
